- TARGET_OR_SYSTEM: alkaline phosphatase (Bos taurus, UniProt P19111)
- Sequence (P19111 20-506 limits assumed): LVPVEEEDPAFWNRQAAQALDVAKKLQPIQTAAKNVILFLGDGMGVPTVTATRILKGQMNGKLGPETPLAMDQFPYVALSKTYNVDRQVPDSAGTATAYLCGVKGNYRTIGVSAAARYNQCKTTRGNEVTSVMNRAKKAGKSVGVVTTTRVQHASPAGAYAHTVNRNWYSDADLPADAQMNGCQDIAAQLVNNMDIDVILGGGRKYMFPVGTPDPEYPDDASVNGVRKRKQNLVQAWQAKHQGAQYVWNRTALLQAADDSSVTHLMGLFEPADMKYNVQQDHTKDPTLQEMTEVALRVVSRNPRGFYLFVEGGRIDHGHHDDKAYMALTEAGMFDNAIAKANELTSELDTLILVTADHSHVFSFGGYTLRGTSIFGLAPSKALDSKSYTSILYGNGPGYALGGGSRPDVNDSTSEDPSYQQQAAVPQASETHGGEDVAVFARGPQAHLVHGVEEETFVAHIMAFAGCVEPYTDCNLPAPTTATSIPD
- ASSAY_TEXT: Chemiluminescent signal and signal:background with enhancer polymers (Example XVII)
- Type: biochemical
- EXPERIMENTAL_PARAMETERS: polymer MPB; 5 min
I'd appreciate it if you could supply SIGNAL values for the items below.
No unit in the answer, please; the number alone is enough.

For record COC1(c2cccc(OP(=O)(O)O)c2)OOC12C1CC3CC2CC(Cl)(C3)C1 (stereo not shown) the listed SIGNAL is 22170.5

Notebook: COC1(c2cccc(OP(=O)(O)O)c2)OOC12C1CC3CC(C1)CC2C3 (stereo not shown) [AMPPD, reference compound] , SIGNAL read as 19971.8

# SIGNAL (compound: COC1(c2cccc(OP(=O)(O)O)c2)OOC12C1CC3CC2CC(O)(C3)C1 (single isomer, unassigned) [A-OH-AMPPD] ) is 13165.3

Record summary for COC1(c2cccc(OP(=O)(O)O)c2)OOC12C1CC3CC2CC(O)(C3)C1 (single isomer, unassigned) [B-OH-AMPPD] : reported SIGNAL = 10021.3

Values compiled from patent US5326882A.
